Recorded values, source patent US11559510B2.

# experiment notes: Plasma pharmacokinetic studies of idronoxil in rats (rectal in cocoa butter vs intestinal in lipid emulsion)
# Type: in vivo, Male Sprague-Dawley rats
# run parameters: male, Sprague-Dawley, rat, plasma, other: rectal, 10 mg/kg, Rectal delivery, cocoa butter, 10 mg/kg, 0 hr; read-out: Idronoxil Plasma Concentration Mean
quantity name: concentration at 0 h (ng/mL)
Numbers only, in ng/mL.

Task: Give concentration at 0 h for the following compound: `Oc1ccc(C2=Cc3ccc(O)cc3OC2)cc1`
Output: 0

###

# experiment notes: Plasma pharmacokinetic studies of idronoxil in rats (rectal in cocoa butter vs intestinal in lipid emulsion)
# Format: in vivo, Male Sprague-Dawley rats
# run parameters: male, Sprague-Dawley, rat, plasma, other: intraduodenal infusion, 10 mg/kg, Intestinal delivery (intraduodenal infusion), lipid emulsion, 10 mg/kg, 6 hr; read-out: Idronoxil Plasma Concentration Mean
quantity name: concentration at 6 h (ng/mL)
Answers are plain numbers, in ng/mL.

Task: State its concentration at 6 h for this molecule: Oc1ccc(C2=Cc3ccc(O)cc3OC2)cc1 [Idronoxil]
Output: 4.79

###

# experiment notes: Plasma pharmacokinetic studies of idronoxil in rats (rectal in cocoa butter vs intestinal in lipid emulsion)
# Format: in vivo, Male Sprague-Dawley rats
# run parameters: male, Sprague-Dawley, rat, plasma, other: intraduodenal infusion, 10 mg/kg, Intestinal delivery (intraduodenal infusion), lipid emulsion, 10 mg/kg, 5 hr; read-out: Idronoxil Plasma Concentration Rat 2
quantity name: concentration at 5 h (ng/mL)
Answers are plain numbers, in ng/mL.

Task: Identify the reported concentration at 5 h for the following entry. `Oc1ccc(C2=Cc3ccc(O)cc3OC2)cc1`
Output: 4.46
